B1: DLC1 (parent)
chain: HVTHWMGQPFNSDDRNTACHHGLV

Variants of: B1
Experiment: protein stability index of a GFP-peptide fusion (GPS, HEK-293T) (PSI 1-6); higher = more stable;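 note: lentivirally expressed fusions sorted by FACS into six bins by GFP to DsRed ratio, PSI derived from sequencing read proportions per bin multiplied by bin number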
Settings: c terminus: a fixed tail appended
Listed here are variants together with their documented protein stability index.
// no unit string in output, number only

>>> quantitative_result("HVTHWMGQPFNSDDRNTACHIGLV [H21I]")
1.85
>>> quantitative_result("HVTHWMGQPFNSDDRNTACHHGLS [V24S]")
2.35
>>> quantitative_result("HVTHWMGQPFNEDDRNTACHHGLV [S12E]")
2.52
>>> quantitative_result("HVTHWMGQPFRSDDRNTACHHGLV [N11R]")
2.17
>>> quantitative_result("YVTHWMGQPFNSDDRNTACHHGLV [H1Y]")
3.14

Could you now look at the following variant, please?
Query: Return reported protein stability index. Input variant: HVTHWMGQPFNSDDRNTGCHHGLV [A18G]
Result: 2.06
